# Measurement description: Cytotoxicity against human LX2 cells incubated for 24 hrs by MTT assay
# Assay type: toxicity, cell-based
# Run parameters: LX-2 cells
Where a SMILES comes first, the peptide text is derived from it. The star is where a group is joined. βNA = c1ccc2cc(N*)ccc2c1
Consider the following compounds; for each one, report its CC50 at 24 h.

Identify CC50 at 24 h associated with the compound NCCC[C@H](NC(=O)C[C@@H](N)Cc1ccccc1)C(=O)Nc1ccc2ccccc2c1 > 100 µM

Note CC50 at 24 h for the compound shown: N=C(N)NCCC[C@H](NC(=O)[C@@H](N)Cc1ccccc1)C(=O)Nc1ccc2ccccc2c1 [PABETAN] (H-Phe-Arg-βNA) > 100 µM

###

# Tested on: Pseudomonas aeruginosa
# Measurement description: Antibacterial activity against Pseudomonas aeruginosa PAO1 assessed as inhibition of bacterial growth incubated for 18 hrs by agar dilution method
# Type: functional
Measure name: MIC (µg/mL)
Please give a number only; it is taken to be in µg/mL.

Specify measured MIC for C[C@@H](O)[C@H]1C(=O)N2C(C(=O)O)=C(S[C@@H]3CN[C@H](C(=O)N(C)C)C3)[C@H](C)[C@H]12 [MEROPENEM] . 2

Give the measured MIC for C[C@@H](O)[C@H]1C(=O)N2C(C(=O)O)=C(SCCNC=N)C[C@H]12 [IMIPENEM ANHYDROUS] 8

Provide MIC value for the following compound: C=CCO/N=C(\C(=O)N[C@@H]1C(=O)N(S(=O)(=O)O)[C@H]1C)c1nsc(N)n1 64

Read off the recorded MIC for C[C@H]1[C@H](NC(=O)/C(=N\OC(C)(C)C(=O)O)c2csc(N)n2)C(=O)N1S(=O)(=O)O [AZTREONAM] 8

###

For each record, write down the corresponding MIC.
# Test system: Pseudomonas aeruginosa
# Measurement description: Antibacterial activity against Pseudomonas aeruginosa 16-2 assessed as inhibition of bacterial growth incubated for 18 hrs by agar dilution method
# Format: functional
Give the value in µg/mL but do not write µg/mL after it.

# return MIC for CC(C)(O/N=C(\C(=O)N[C@@H]1C(=O)N2C(C(=O)[O-])=C(C[n+]3ccccc3)CS[C@H]12)c1csc(N)n1)C(=O)O , test system: Pseudomonas aeruginosa 128

Fetch value of MIC on Pseudomonas aeruginosa for NCCC[C@H](NC(=O)C[C@@H](N)Cc1ccccc1)C(=O)Nc1ccc2ccccc2c1 . 513

With Pseudomonas aeruginosa as the test system, provide measured MIC for this compound: C[C@@H](O)[C@H]1C(=O)N2C(C(=O)O)=C(SCCNC=N)C[C@H]12 [IMIPENEM ANHYDROUS] 32

Report MIC under test system Pseudomonas aeruginosa for C[C@@H](O)[C@H]1C(=O)N2C(C(=O)O)=C(S[C@@H]3CN[C@H](C(=O)N(C)C)C3)[C@H](C)[C@H]12 . 16

###

# Measurement description: Cytotoxicity against HEK293 cells incubated for 24 hrs by MTT assay
# Assay type: toxicity, cell-based
# Run parameters: human
Where a SMILES comes first, the peptide text is derived from it. The star is where a group is joined. βNA = c1ccc2cc(N*)ccc2c1
Assign CC50 at 24 h to each entry below.

Return CC50 at 24 h for the following compound: NCCC[C@H](NC(=O)C[C@@H](N)Cc1ccccc1)C(=O)Nc1ccc2ccccc2c1 > 100 µM

For the compound N=C(N)NCCC[C@H](NC(=O)[C@@H](N)Cc1ccccc1)C(=O)Nc1ccc2ccccc2c1 [PABETAN] (H-Phe-Arg-βNA) , give its measured CC50 at 24 h value. > 100 µM

###

For each entry below, report its MIC value.
# Tested on: Pseudomonas aeruginosa
# Measurement description: Synergistic antibacterial activity against Pseudomonas aeruginosa PAO1 assessed as aztreonam MIC upto […] ug/ml incubated for 18 hrs by checkerboard method (reference value: 8 microg/ml)
# Format: functional
Record the value in µg/mL, omitting the unit from your answer.

Hello, please tell me recorded MIC for this one: NCCC[C@H](NC(=O)CCc1ccc(F)cc1)C(=O)Nc1ccc2ccccc2c1 8

Look up MIC of NCCC[C@H](NC(=O)CCCc1ccccc1)C(=O)Nc1ccc2ccccc2c1 and report it. 8

Fill in MIC for record NCCC[C@H](NC(=O)c1ccc2ccccc2c1)C(=O)N[C@@H](CCc1ccccc1)C(=O)O 8

Look up and state reported MIC for NCCC[C@H](NCc1ccc2ccccc2c1)C(=O)N[C@@H](CCc1ccccc1)C(=O)O 8

Give the reported value of MIC for this record: CCOC(=O)[C@H](CCc1ccccc1)NC(=O)[C@H](CCCN)NC(=O)c1ccc2ccccc2c1 8

Using the record for NCCC[C@H](NC(=O)CCc1cc(F)cc(F)c1)C(=O)Nc1ccc2ccccc2c1 , state its measured MIC. 2

###

Exercise: state measured MIC for each of the molecules provided.
# Tested on: Klebsiella pneumoniae
# Measurement description: Antibacterial activity against ESBLs (+) Klebsiella pneumoniae 16-14 assessed as inhibition of bacterial growth incubated for 18 hrs by agar dilution method
# Type: functional
Report the figure in µg/mL without appending any unit label.

Give the reported value of MIC for this record: C[C@H](O/N=C(\C(=O)N[C@@H]1C(=O)N(OS(=O)(=O)O)C1(C)C)c1csc(N)n1)C(=O)O 0.25

Given the molecule C[C@H]1[C@H](NC(=O)/C(=N\OCC(=O)N2C3CCCC3C[C@@H]2C(=O)O)c2csc(N)n2)C(=O)N1S(=O)(=O)O (stereo not given in full) , write its reported MIC. 64

Report MIC for C[C@@H](O/N=C(\C(=O)N[C@@H]1C(=O)N(OS(=O)(=O)O)C1(C)C)c1csc(N)n1)C(=O)O 0.5

# return recorded MIC for entry CC(C)[C@@H](O/N=C(\C(=O)N[C@@H]1C(=O)N(OS(=O)(=O)O)C1(C)C)c1csc(N)n1)C(=O)O 16

For C[C@H]1[C@H](NC(=O)/C(=N\OC(C)(C)C(=O)O)c2csc(N)n2)C(=O)N1S(=O)(=O)O , write its MIC. 4

Consider the molecule C[C@H]1[C@H](NC(=O)/C(=N\OCC(=O)N2CCC[C@@H]2C(=O)O)c2csc(N)n2)C(=O)N1S(=O)(=O)O . State its measured MIC. 16

Dear colleague, please send me the reported MIC for CC(C)[C@H](O/N=C(\C(=O)N[C@@H]1C(=O)N(OS(=O)(=O)O)C1(C)C)c1csc(N)n1)C(=O)O when you can. 0.125

###

# System: Escherichia coli
# Measurement description: Antibacterial activity against NDM-1 (+) Escherichia coli CDC 1001728 assessed as inhibition of bacterial growth incubated for 18 hrs by agar dilution method
# Format: functional
Please go through the items and note down their MIC.
The figure you give is taken to be in µg/mL; do not add the unit.

Please look at this molecule and report its MIC: C[C@H]1[C@H](NC(=O)/C(=N\OC(C)(C)C(=O)N2CCC[C@@H]2C(=O)O)c2csc(N)n2)C(=O)N1S(=O)(=O)O 64

Name the recorded MIC of the molecule listed here: C[C@H]1[C@H](NC(=O)/C(=N\OCC(=O)N2C3CCCC3C[C@@H]2C(=O)O)c2csc(N)n2)C(=O)N1S(=O)(=O)O (some centres undefined) 16

Read the entry CC(C)[C@@H](O/N=C(\C(=O)N[C@@H]1C(=O)N(OS(=O)(=O)O)C1(C)C)c1csc(N)n1)C(=O)O and write its reported MIC. 32

Let me know recorded MIC for C[C@H]1COc2c(N3CCN(C)CC3)c(F)cc3c(=O)c(C(=O)O)cn1c23 [LEVOFLOXACIN ANHYDROUS] , thanks. 8

Give MIC for the following molecule: C[C@H]1[C@H](NC(=O)/C(=N\OCC(=O)N2CCC[C@@H]2C(=O)O)c2nsc(N)n2)C(=O)N1S(=O)(=O)O 8

Look up and state reported MIC for C[C@H]1[C@H](NC(=O)/C(=N\OC(C)(C)C(=O)O)c2csc(N)n2)C(=O)N1S(=O)(=O)O 4

Consider the molecule C[C@H]1[C@H](NC(=O)/C(=N\OCC(=O)N2CCC(C(=O)O)CC2)c2csc(N)n2)C(=O)N1S(=O)(=O)O and give its recorded MIC. 16

Respond only with MIC recorded for C[C@H]1[C@H](NC(=O)/C(=N\OCCN)c2nsc(N)n2)C(=O)N1S(=O)(=O)O 16

Quote MIC reported for C[C@H]1[C@H](NC(=O)/C(=N\OCC(=O)N2CCC(C(=O)O)C2)c2csc(N)n2)C(=O)N1S(=O)(=O)O (some centres undefined) please. 16

Report MIC, nothing else, for this molecule: C[C@H]1[C@H](NC(=O)/C(=N\OCC(=O)N2CCC[C@@H]2C(=O)O)c2csc(N)n2)C(=O)N1S(=O)(=O)O 8

Supply recorded MIC for C[C@H]1[C@H](NC(=O)/C(=N\OCC(=O)N2CCCC(C(=O)O)C2)c2csc(N)n2)C(=O)N1S(=O)(=O)O (some centres undefined) here. 16

Answer with reported MIC of C#CCO/N=C(\C(=O)N[C@@H]1C(=O)N(S(=O)(=O)O)[C@H]1C)c1nsc(N)n1 32

Tell me measured MIC for C=CCO/N=C(\C(=O)N[C@@H]1C(=O)N(S(=O)(=O)O)[C@H]1C)c1nsc(N)n1 please. 64

In one line, give reported MIC of the entry CC(C)[C@H](O/N=C(\C(=O)N[C@@H]1C(=O)N(OS(=O)(=O)O)C1(C)C)c1csc(N)n1)C(=O)O . 0.5

src = ChEMBL document CHEMBL5625252
